Molecular target: T1, human GIP receptor (human) (UniProt P48546)
T1 sequence (looked up): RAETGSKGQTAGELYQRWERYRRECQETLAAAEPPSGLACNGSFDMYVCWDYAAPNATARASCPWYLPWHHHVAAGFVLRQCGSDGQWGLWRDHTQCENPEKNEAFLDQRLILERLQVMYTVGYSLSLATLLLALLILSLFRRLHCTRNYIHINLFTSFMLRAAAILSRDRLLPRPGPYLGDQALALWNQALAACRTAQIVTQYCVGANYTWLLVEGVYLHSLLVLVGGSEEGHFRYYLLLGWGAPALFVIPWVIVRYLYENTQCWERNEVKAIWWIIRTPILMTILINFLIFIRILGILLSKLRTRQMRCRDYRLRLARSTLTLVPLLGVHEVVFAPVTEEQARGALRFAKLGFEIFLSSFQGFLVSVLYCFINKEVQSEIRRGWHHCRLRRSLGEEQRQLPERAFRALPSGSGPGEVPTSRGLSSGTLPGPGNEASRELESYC
Assay: cell-based or functional assay
Starred links: 1 amine or outer side, 2 acyl side, 3 side chain; linkers in the order of their positions; H or OH if unused. Non-standard residues stand in square brackets, D forms with d. Groups on a side chain read outwards from the residue. No end group written: not given here. *: point of attachment. C18 diacid = O=C(O)CCCCCCCCCCCCCCCCC(=O)*; αMePhe(2-F) = C[C@](N)(Cc1ccccc1F)C(=O)O; γGlu = O=C(O)[C@H](CCC(=O)[*:2])N[*:1]; αMeF = C[C@](N)(Cc1ccccc1)C(=O)O; αMeL = CC(C)C[C@](C)(N)C(=O)O; AEEA = NCCOCCOCC(=O)O; Aib = CC(C)(N)C(=O)O
measured_endpoint: log10 Relative cAMP EC50 (log10 of the value in nM)
# log10 transformed; quantity=Relative cAMP EC50; unit=nM

Below: 4 binders and their reported log10 Relative cAMP EC50.
**Q:** Read off the recorded log10 Relative cAMP EC50 for HXQGTXTSDYSILLDKKAQXAFIEYLEEGGPSSGAPPPS (synthetic construct; SITE 2: note = 2-Aminoisobutyric Acid; SITE 6: note = alpha-methyl-2-fluoro-L-phenylalanine; SITE 17: note = Lysine is chemically modified through conjugation of the epsilon-amino group of the Lysine side chain with (gamma-Glu)2-CO-(CH2)16-CO2H; SITE 20: note = 2-Aminoisobutyric) [Example 426]
**A:** -1.10

**Q:** Tell me measured log10 Relative cAMP EC50 for YXQGTXTSDXSILLDKKAQXAFIEYLEEGGPSSGAPPPEGTGE (synthetic construct; SITE 2: note = 2-Aminoisobutyric Acid; SITE 6: note = alpha-methyl-2-fluoro-L-phenylalanine; SITE 10: note = 3-(4-Pyridyl)-L-alanine; SITE 17: note = Lysine is chemically modified through conjugation of the epsilon-amino group of the Lysine side chain with (gamma-Glu)2-CO-(CH2)1) [Example 660 (SEQ ID NO: 666)] please.
**A:** -1.19

**Q:** Consider the binder YXQGTFTSDXSQXLDKKAQXAFIEYLIEXGPSSGAPPPSGSGE (not fully specified; possible C-terminal amide; synthetic construct; SITE 2: note = 2-Aminoisobutyric Acid; SITE 10: note = 3-(4-Pyridyl)-L-alanine; SITE 13: note = alpha-methyl-leucine; SITE 17: note = Lysine is chemically modified through conjugation of the epsilon-amino group of the Lysine side chain with (gamma-Glu)2-CO-(CH2)16-CO2H; SITE 20:) [Example 891] . State its measured log10 Relative cAMP EC50.
**A:** -0.81

**Q:** Provide measured log10 Relative cAMP EC50 value, entry: YXQGTXTSDYSIXLDKKAAXAFIEYLIETGPSSGAPPPSEG (synthetic construct; SITE 2: note = 2-Aminoisobutyric Acid; SITE 6: note = alpha-methyl-2-fluoro-L-phenylalanine; SITE 13: note = alpha-methyl-leucine; SITE 17: note = Lysine is chemically modified through conjugation of the epsilon-amino group of the Lysine side chain with (2-[2-(2-Amino-ethoxy)-et)) [Example 383]
**A:** -1.39

Would you mind giving log10 Relative cAMP EC50 for every binder in the list below?
1. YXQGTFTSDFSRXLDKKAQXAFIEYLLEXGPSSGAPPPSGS (synthetic construct; SITE 2: note = 2-Aminoisobutyric Acid; SITE 13: note = alpha-methyl-leucine; SITE 17: note = Lysine is chemically modified through conjugation of the epsilon-amino group of the Lysine side chain with (2-[2-(2-Amino-ethoxy)-ethoxy]-acetyl)-(gamma-Glu)-CO-(CH2) 16-CO2H; SITE 20: n) [Example 79]
2. YXQGTXTSDYSILLDXKAQXAFIEYLEEGGPSSGAPPPS (synthetic construct; SITE 2: note = 2-Aminoisobutyric Acid; SITE 6: note = alpha-methyl-2-fluoro-L-phenylalanine; SITE 16: note = L-ornithine; SITE 17: note = Lysine is chemically modified through conjugation of the epsilon-amino group of the Lysine side chain with (gamma-Glu)2-CO-(CH2)16-CO2H; SITE) [Example 414]

**A:**
1: -1.11; 2: -1.52

For each of the binders below, note its log10 Relative cAMP EC50.
1. YXQGTFTSDXSXXLDKKAQXAFIEXLLEGGPSSGAPPPSGSEE (synthetic construct; SITE 2: note = 2-Aminoisobutyric Acid; SITE 10: note = 3-(4-Pyridyl)-L-alanine; SITE 12: note = L-ornithine; SITE 13: note = alpha-methyl-leucine; SITE 17: note = Lysine is chemically modified through conjugation of the epsilon-amino group of the Lysine side chain with (gamma-Gl)) [Example 944]
2. Y[Aib]QGTFTSDFSK[αMeL]LDKKAQQAFIEYLLA[Aib]GPSSGAPPPSEG-NH2 (not fully specified (residue 17)) [Example 30]
3. YXQGTFTSDFSRXLDKKAQXAFIEYLIEXGESSGAPPPSGS (non-natural residues, AEEA-γGlu-C18 diacid acyl on K, C-terminal amide; synthetic construct; SITE 2: note = 2-Aminoisobutyric Acid; SITE 13: note = alpha-methyl-leucine; SITE 17: note = Lysine is chemically modified through conjugation of the epsilon-amino group of the Lysine side chain with (2-[2-(2-Amino-ethoxy)-ethoxy]-acetyl)-(gamma-Glu)-CO-(CH2) 16-CO2H; SITE 20: n) [Example 230]
4. Y[Aib]QGT[αMePhe(2-F)]TSDYSILLDAKAFIEYLEEGGPSSGAPPPSEG-NH2 (not fully specified (residue 17)) [Example 410]

**A:**
[-0.67, -0.61, -1.04, -1.15]

I would be grateful if you could provide log10 Relative cAMP EC50 for each of the following entries.
1. YXQGTFTSDXSQXLDXKAQXQFIEXLIEXGPSSGAPPPSGSEE (Aib, 4Pal, αMeL, Orn, Me4Pal, αMeY; acylated lysine; amide; synthetic construct; SITE 2: note = 2-Aminoisobutyric Acid; SITE 10: note = 3-(4-Pyridyl)-L-alanine; SITE 13: note = alpha-methyl-leucine; SITE 16: note = L-ornithine; SITE 17: note = Lysine is chemically modified through conjugation of the epsilon-amino group of the Lysine side chain with (2-[2-(2-) [Example 1109]
2. Y[Aib]QGT[αMeF]TSDYSILLDKIAAK([AEEA-AEEA-γGlu-C18 diacid])NFIEYLVEGGPSSGEPPPSEG-NH2 [Example 307]
3. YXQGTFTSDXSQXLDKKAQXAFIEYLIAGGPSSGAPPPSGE (non-natural residues; lipidated Lys; C-terminal amide; synthetic construct; SITE 2: note = 2-Aminoisobutyric Acid; SITE 10: note = 3-(4-Pyridyl)-L-alanine; SITE 13: note = alpha-methyl-leucine; SITE 17: note = Lysine is chemically modified through conjugation of the epsilon-amino group of the Lysine side chain with D-Glutamic acid-(gamma-Glu)-CO-(CH2)16) [Example 1085]
4. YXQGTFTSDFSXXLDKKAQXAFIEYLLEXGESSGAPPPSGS (Aib, Orn, αMeL; γGlu-AEEA-γGlu-C18 diacid on Lys; C-terminal amide; synthetic construct; SITE 2: note = 2-Aminoisobutyric Acid; SITE 12: note = L-ornithine; SITE 13: note = alpha-methyl-leucine; SITE 17: note = Lysine is chemically modified through conjugation of the epsilon-amino group of the Lysine side chain with (gamma-Glu)-(2-[2-(2-Amino-ethoxy)-ethoxy]-acetyl)) [Example 244]
5. YXQGTFTSDFSKXLDKKAQXAFIEYLLEGGPSSGAPPPXGE (synthetic construct; SITE 2: note = 2-Aminoisobutyric Acid; SITE 13: note = alpha-methyl-leucine; SITE 17: note = Lysine is chemically modified through conjugation of the epsilon-amino group of the Lysine side chain with (2-[2-(2-Amino-ethoxy)-ethoxy]-acetyl)-(gamma-Glu)-CO-(CH2) 18-CO2H; SITE 20: n) [Example 53]
6. YXQGTFTSDFSKXLDKKAQXAFIEWLLAGGPSSGEPPPSEG (non-natural residues, acyl lysine, C-terminal amide; synthetic construct; SITE 2: note = 2-Aminoisobutyric Acid; SITE 13: note = alpha-methyl-leucine; SITE 17: note = Lysine is chemically modified through conjugation of the epsilon-amino group of the Lysine side chain with (2-[2-(2-Amino-ethoxy)-ethoxy]-acetyl)-(gamma-Glu)-CO-(CH2) 18-CO2H; SITE 20: n) [Example 20]

**A:**
[-1.20, -0.35, -1.08, -1.01, -0.29, -0.42]
